Data origin, for the record: ChEMBL document CHEMBL3988442

biological target: Tyrosyl-tRNA synthetase, putative (Trypanosoma cruzi (strain CL Brener)) (UniProt Q4DSP6); experiment: Trypanosoma cruzi tyrosyl tRNA synthetase (TcYRS) SOP; type: functional; set-up: scale not given: direction of the effect not stated beside the values; settings: 30 µM
Sequence (Q4DSP6 as listed by the source): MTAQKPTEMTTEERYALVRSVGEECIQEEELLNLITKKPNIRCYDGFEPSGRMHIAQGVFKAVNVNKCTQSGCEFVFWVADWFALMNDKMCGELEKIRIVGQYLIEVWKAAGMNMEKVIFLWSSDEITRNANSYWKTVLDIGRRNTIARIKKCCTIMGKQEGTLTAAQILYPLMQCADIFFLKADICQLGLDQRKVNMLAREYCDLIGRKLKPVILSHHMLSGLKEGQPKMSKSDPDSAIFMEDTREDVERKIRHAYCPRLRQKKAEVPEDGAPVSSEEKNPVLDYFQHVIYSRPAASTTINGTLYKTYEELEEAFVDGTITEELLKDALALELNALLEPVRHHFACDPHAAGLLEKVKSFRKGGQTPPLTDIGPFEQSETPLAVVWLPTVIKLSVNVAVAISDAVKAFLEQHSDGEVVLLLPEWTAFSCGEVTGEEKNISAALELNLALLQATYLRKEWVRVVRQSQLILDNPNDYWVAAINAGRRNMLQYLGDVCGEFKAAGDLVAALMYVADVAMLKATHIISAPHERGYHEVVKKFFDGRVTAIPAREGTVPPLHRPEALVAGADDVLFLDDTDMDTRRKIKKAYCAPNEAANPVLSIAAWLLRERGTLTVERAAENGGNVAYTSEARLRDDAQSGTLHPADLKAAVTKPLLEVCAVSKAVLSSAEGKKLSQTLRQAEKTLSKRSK
Percent Effect: recorded values

Answered examples (5):
OCCN1CCOC2(CCCN(c3cccc(F)c3)C2)C1 (configuration not stated)	24.4%
CC1=NN(c2ccc(C(=O)N3CCCC(n4ccnc4)C3)cc2)CC1 (configuration not stated)	16.5%
Fc1cc(CNCc2ccc3c(c2)CCO3)ccc1N1CCOCC1	0%
CC(C)c1nc2c(n1C)CCN(Cc1nc(-c3ccsc3)no1)C2	25.6%
CC(C)Oc1ncccc1CNC(=O)c1cc[nH]n1	6.17%

Task: Given the compound CC(C)c1cc(NC(=O)CN2CCCC2Cn2cccn2)on1 (configuration not stated) , what is its reported Percent Effect?
Result: 6.17%

Task: Please answer likewise for `NCc1cnn(-c2ccccc2C(=O)NCCCn2ccnc2)c1`
Result: 11.7%

Task: Please answer likewise for CC(NC(=O)CSCC#N)c1cccc(NC(=O)c2ccccc2)c1 (configuration not stated)
Result: 23.5%

Task: Please answer likewise for `COc1ccc(C(=O)NCCc2nnc3ccccn23)c(OC)c1`
Result: 2.35%

Task: Please answer likewise for O=C(c1cccc2c1OCO2)N1CCCC1Cn1cccn1 (configuration not stated)
Result: 9.41%

Task: Please answer likewise for Cc1nc(C)n(CC2CN(CCc3ccncc3)CCO2)n1 (configuration not stated)
Result: 10%

Task: Please answer likewise for CC(CNC(=O)c1ccccc1Oc1cccnc1)N(C)C (configuration not stated)
Result: 9.76%
